# System: Caco-2
# assay protocol: cell viability relative to DMSO; higher = less toxic
# settings: 72 h; 10 nM
// reported cell viability for each item listed
Write the numeric value and follow it with the unit.

Record excerpt, results attached:
Ask: Can you look up the measured cell viability of `COc1cc(OC)cc(N(CCNC(C)C)c2ccc3ncc(-c4cnn(C)c4)nc3c2)c1` for me?
Result: 99.3%

Ask: Can you look up the measured cell viability of `N[C@@H](CS(=O)O)C(=O)O` for me?
Result: 93.2%

Ask: Using the record for `N#Cc1ccc2[nH]cc(CCCCN3CCN(c4ccc5oc(C(N)=O)cc5c4)CC3)c2c1` , report its cell viability.
Result: 106%

Ask: Fill in: cell viability of `C=CCNc1c(O)cc2c(O)c1C[C@@H](C)C[C@H](OC)[C@H](O)[C@@H](C)/C=C(\C)[C@H](OC(N)=O)[C@@H](OC)/C=C\C=C(/C)C(=O)N2` is ___
Result: 101%

Next:
Ask: Bench note: what cell viability did `CCCc1nc2c(C)cc(-c3nc4ccccc4n3C)cc2n1Cc1ccc(-c2ccccc2C(=O)O)cc1` show?
Result: 97.3%

Ask: // lookup cell viability for `CCCCCCCCCCCCC[N+](C)(C)Cc1ccccc1`
Result: 102%

* * *

# Tested on: Calu-3
# assay protocol: cell viability relative to DMSO; higher = less toxic
# settings: 72 h; 1000 nM
This listing pairs molecules with measured cell viability.
API: value field is a number in %; no unit string.

Look over these answered cases.
Ask: Name the reported cell viability value associated with the molecule CCC[S+]([O-])c1ccc2[nH]c(NC(=O)OC)nc2c1 (stereo not drawn) [albendazole-oxide]
Result: 95.7

Ask: Which measured cell viability value corresponds to `CC[C@@H](c1ccc(F)c(F)c1)n1c(C(=O)OC)c(-c2ccno2)[nH]c1=S` ?
Result: 91.3

Ask: Data request, read-out cell viability, for COc1ccc(CC2NCCc3c2[nH]c2ccc(C)cc32)c(Cl)c1OC (stereo not drawn)
Result: 102

Ask: Entry O=C(Nc1ccc2c(O)cc(S(=O)(=O)O)cc2c1)Nc1ccc2c(O)cc(S(=O)(=O)O)cc2c1 [AMI-1] : reported cell viability = ?
Result: 109

Ask: // query cell viability value for entry `O=C(O)CCc1ccc(NCc2cccc3c2CCCN3CCOc2ccccc2)cc1F`
Result: 94.8

Further cases:
Ask: # query: cell viability of entry CN1c2ccccc2C(NCCCCCCC(=O)O)c2ccc(Cl)cc2S1(=O)=O (stereo not drawn) [tianeptine]
Result: 102

Ask: Dear colleague, I am looking for the recorded cell viability of the following molecule: Cc1cc2c(F)c(Oc3ncnn4cc(OC[C@@H](C)OC(=O)[C@H](C)N)c(C)c34)ccc2[nH]1 [brivanib-alaninate]
Result: 102

Ask: Any idea what its cell viability is? The molecule is Cc1cc(N2CCN([C@@H]3CN[C@H](C(=O)N4CCSC4)C3)CC2)n(-c2ccccc2)n1 [teneligliptin]
Result: 91.9

* * *

Entries annotated with measured cell viability
# Test system: Calu-3
# assay protocol: cell viability relative to DMSO; higher = less toxic
# settings: 72 h; 10 nM
Your answer is read as %, so omit the unit and give the number.

Ask: Quick one: cell viability of COc1ccc([C@@H]2CC(=O)c3c(O)cc(O[C@@H]4O[C@H](CO)[C@@H](O)[C@H](O)[C@H]4O[C@@H]4O[C@@H](C)[C@H](O)[C@@H](O)[C@H]4O)cc3O2)cc1O [neohesperidin] ?
Result: 91.1

More entries:
Ask: # lookup: cell viability of CCCc1nc2c(C)cc(-c3nc4ccccc4n3C)cc2n1Cc1ccc(-c2ccccc2C(=O)O)cc1 [telmisartan]
Result: 97.9

Ask: Look at this compound and give its reported cell viability. CC(C)=CCc1c(O)cc(O)c2c(=O)c(O)c(-c3ccc(C(F)(F)F)cc3)oc12 [SNG-1153]
Result: 89.6

* * *

# Tested on: U2OS
# assay protocol: cell viability relative to DMSO; higher = less toxic
# settings: 72 h; 10000 nM
Item-by-item account of cell viability
Hi! Could you send only the number? It should be in %, unit omitted.

Example cases with answers are listed next.
Ask: Item `C[C@]12CCC(=O)C=C1C=C[C@@H]1[C@@H]2CC[C@@]2(C)[C@H]1CC[C@@]21CCC(=O)O1` with U2OS - cell viability?
Result: 95.8

Ask: For the record `CCCCCCCCCCC[C@@H](C[C@@H]1OC(=O)[C@H]1CCCCCC)OC(=O)[C@H](CC(C)C)NC=O` , what value of cell viability is listed for U2OS?
Result: 105

Ask: For the record `CN1C(=O)CN=C(c2ccccc2)c2cc(Cl)ccc21` , what value of cell viability is listed for U2OS?
Result: 103

Ask: Give recorded cell viability with U2OS for the following compound: Cc1cccc(C)c1NC(=O)C1CCCCN1C (stereo not drawn) [mepivacaine]
Result: 104

Ask: Request - read-out cell viability | tested on U2OS | compound `C[C@@H]1C[C@H]2[C@@H]3CCC4=CC(=O)C=C[C@]4(C)[C@@]3(F)[C@@H](O)C[C@]2(C)[C@H]1C(=O)CO`
Result: 101

Further cases:
Ask: What value of cell viability on U2OS does Nc1ncc2c(n1)CC(c1ccco1)CC2=O (stereo not drawn) have?
Result: 100

Ask: What measured cell viability is associated with `Cc1cc(N2CCN([C@@H]3CN[C@H](C(=O)N4CCSC4)C3)CC2)n(-c2ccccc2)n1` on U2OS?
Result: 98.3

Ask: Which cell viability is reported with U2OS for this entry: `O[C@@H](CN1CCNCC1)Cn1c2ccc(Br)cc2c2cc(Br)ccc21` ?
Result: 3.8

* * *

Documented cell viability across a set of compounds
# Tested on: U2OS
# assay protocol: cell viability relative to DMSO; higher = less toxic
# settings: 72 h; 10 nM
Write the answer as a number in %, unit excluded.

Ask: Could you share what cell viability was measured for CNS(=O)(=O)Cc1ccc2[nH]cc(CCN(C)C)c2c1 [sumatriptan] , tested on U2OS?
Result: 95.2

Ask: Observed cell viability on U2OS for `C[C@@H](CN1CCC(n2c(=O)[nH]c3cc(Cl)ccc32)CC1)NC(=O)c1ccc2ccccc2c1` , please.
Result: 102

Ask: Given the entry CCOc1cccc(NC(=O)c2ccc(N3CCCC3)c(C(F)(F)F)c2)c1 [EPPTB] , what cell viability was observed with U2OS?
Result: 99.2

Next:
Ask: # value lookup — system U2OS, readout cell viability, item C[C@H](CCC(=O)O)[C@H]1CC[C@H]2[C@@H]3[C@@H](O)C[C@@H]4C[C@H](O)CC[C@]4(C)[C@H]3CC[C@]12C [ursodiol]
Result: 94.3

Ask: API: value(readout=cell viability, system=U2OS) for record CC(C)[C@@H](C)/C=C/[C@@H](C)[C@H]1CC[C@H]2C3=CC=C4C[C@@H](O)CC[C@]4(C)[C@H]3CC[C@]12C [ergosterol]
Result: 96.7

Ask: # get_value(readout= cell viability, system= U2OS) for CC(C)(C)c1ccc(-c2nc3ccccc3[nH]2)cc1 [ZLN005]
Result: 94.2

Ask: Form entry - test system: U2OS; read-out: cell viability; compound: C=CC(=O)Nc1cc(Nc2nccc(-c3c[nH]c4ccccc34)n2)c(OC)cc1N(C)CCN(C)C [AZ5104]
Result: 95.2

Ask: Notebook entry, U2OS assay: cell viability of CCCc1cc(C(N)=S)ccn1 [protionamide] = ?
Result: 107

* * *

# Tested on: Calu-3
# assay protocol: cell viability relative to DMSO; higher = less toxic
# settings: 72 h; 1 nM
Here, each record is paired with measured cell viability data.

Some compounds with recorded cell viability:
Ask: Give the reported cell viability for CC1(C)OC2(C)C(O)CC1CC2O (stereo unspecified) [epomediol] (system: Calu-3).
Result: 97.1%

Ask: Under Calu-3: cell viability value of `Cc1cc(CN)cc(C)c1NC(=O)c1ccc(-c2cc(Cl)ccc2Cl)o1` ?
Result: 104%

Ask: Kindly state the measured cell viability obtained for CCC1(c2ccccc2)C(=O)NCNC1=O [primidone] with Calu-3.
Result: 102%

Ask: Recall the recorded cell viability for `CN1C(=O)N(c2cc(Cl)cc(Cl)c2)C(=O)[C@]12CN(c1ccc(C(=O)O)cn1)C[C@H]2c1ccc(C#N)cc1` with Calu-3 and state it.
Result: 104%

Ask: Form: Entry = O=C1CCC[C@@H]2[C@H]3CCC[N+]4([O-])CCC[C@@H](CN12)[C@@H]34 (stereo partly specified) [oxymatrine] | System = Calu-3 | cell viability = ____
Result: 89%

Turning to the following compound.
Ask: I'm curious: which cell viability was measured for COc1ccc([C@@H]2CC(=O)c3c(O)cc(O[C@@H]4O[C@H](CO)[C@@H](O)[C@H](O)[C@H]4O[C@@H]4O[C@@H](C)[C@H](O)[C@@H](O)[C@H]4O)cc3O2)cc1O [neohesperidin] tested on Calu-3?
Result: 102%

Entry source: the supplement of paper PMC13380429
